Entries and their pIC50 values follow.
- measurement.target: Syk kinase (Homo sapiens)
- Construct: purchased
- experiment.notes: Syk kinase inhibition, Caliper LabChip off-chip mobility-shift kinase assay
- Assay type: biochemical
- recorded.conditions: Caliper LabChip assay; read-out: Syk Enzyme IC50
# pIC50 is unitless: minus log10 of the molar concentration; print number only

molecule	measurement.target	pIC50
CC(C)(C)Nc1nc(Nc2cnccn2)cc2ccn(Cc3nn[nH]n3)c(=O)c12 [compound 884]	Syk kinase (Homo sapiens)	7.57
O=c1c2c(N[C@H]3CC[C@@H](O)CC3)nc(Nc3cnccn3)cc2ccn1CCCO [compound 948]	Syk kinase (Homo sapiens)	7.74
CC(C)(C)Nc1nc(Nc2cnccn2)cc2ccn(CCOCCO)c(=O)c12 [compound 1013]	Syk kinase (Homo sapiens)	7.16
CN1CCC(Oc2cc(Nc3cc4ccn(C[C@H](O)CO)c(=O)c4c(NC(C)(C)C)n3)ncn2)CC1 [compound 649]	Syk kinase (Homo sapiens)	8.22
CC(C)n1ccc2cc(Nc3cnccn3)nc(N[C@H]3CC[C@H](O)CC3)c2c1=O [compound 965]	Syk kinase (Homo sapiens)	7.21
CC(C)(C)Nc1nc(Nc2cc(C(=O)NO)ccn2)cc2ccn(CCO)c(=O)c12 [compound 879]	Syk kinase (Homo sapiens)	7.59
Cc1cn(CCO)c(=O)c2c(NC(C)(C)C)nc(-c3cnc(N)nc3)cc12 [compound 671]	Syk kinase (Homo sapiens)	7.89
CC1(Nc2nc(Nc3cnccn3)cc3ccn(CCO)c(=O)c23)CCC1 [compound 896]	Syk kinase (Homo sapiens)	7.96

Query :: Please report pIC50 for the following molecule: COCCNC(=O)c1ccnc(Nc2cc3ccn(CCO)c(=O)c3c(NC(C)(C)C)n2)c1 [compound 682]
Result :: 6.48

Query :: Please report pIC50 for the following molecule: CN1CCC(Oc2cc(Nc3cc4ccn(CCO)c(=O)c4c(NC(C)(C)C)n3)ncn2)CC1 [compound 648]
Result :: 8.22

Query :: Please report pIC50 for the following molecule: Cc1ccnc(Nc2cc3ccn(C(C)C)c(=O)c3c(NC(C)(C)C)n2)c1 [compound 821]
Result :: 6.57

Query :: Please report pIC50 for the following molecule: [2H]C([2H])([2H])n1ccc2cc(Nc3cc(C)ccn3)nc(N[C@H]3CC[C@H](O)CC3)c2c1=O [compound 983]
Result :: 7.29

Query :: Please report pIC50 for the following molecule: CC(C)(C)Nc1nc(Nc2cnccn2)cc2ccn(CC(O)C(F)(F)F)c(=O)c12 (centres unmarked) [compound 1011]
Result :: 6.34

Query :: Please report pIC50 for the following molecule: CC(C)(C)Nc1nc(Nc2cc(N3CCCC(O)C3)ccn2)cc2ccn(CCO)c(=O)c12 (centres unmarked) [compound 848]
Result :: 6.21

Query :: Please report pIC50 for the following molecule: CC(O)Cn1ccc2cc(-c3cnc(N)nc3)nc(NC(C)(C)C)c2c1=O (centres unmarked) [compound 927]
Result :: 7.85

Query :: Please report pIC50 for the following molecule: O=c1c2c(N[C@H]3CC[C@@H](O)CC3)nc(Nc3cnccn3)cc2ccn1C1CS(=O)(=O)C1 [compound 1010]
Result :: 8.00

Query :: Please report pIC50 for the following molecule: CC(C)(C)Nc1nc(Nc2cnccn2)cc2ccn(C3COC3)c(=O)c12 [compound 1014]
Result :: 6.92
